Source of measurements: patent US20240076347A1

- Procedure details: Monkey pharmacokinetics, SC and IV administration
- Format: in vivo, cynomolgus monkeys
- Conditions used: cynomolgus monkey, plasma, iv, 30 mg/kg
Numbered stars: 1 amine (or outer) side, 2 acyl side, 3 side chain; on linkers, the order of the positions; unused ones are H or OH. Bridge positions count the residues as written; N and C are the ends. Square brackets hold non-standard residues; d marks the D form. Peptide text beside a SMILES is read from it. * marks the point of attachment. ξ: configuration not given here. Orn(4R-OH,5R-OCH2CH2NMe3+) = C[N+](C)(C)CCO[C@@H](N[*:3])[C@H](O)C[C@H](N[*:1])C(=O)[*:2]; pTerphenylCO(4''-OnC5H11) = CCCCCOc1ccc(-c2ccc(-c3ccc(C(=O)*)cc3)cc2)cc1; hTyr(3S-OH,4S-OH) = N[C@H](C(=O)O)[C@H](O)[C@@H](O)c1ccc(O)cc1; X1 = C[C@H]1CN([*:1])C(C(=O)[*:2])C1O; Hyp = O=C(O)[C@@H]1C[C@@H](O)CN1; ξT = CC(O)C(N)C(=O)O
Quantity: half-life
The reply must contain the numeric value and, after it, the unit.

**Query** # query: half-life of entry CCCCCOc1ccc(-c2ccc(-c3ccc(C(=O)N[C@H]4C[C@@H](O)[C@@H](OCC[N+](C)(C)C)NC(=O)C5C(O)[C@@H](C)CN5C(=O)[C@H]([C@@H](C)O)NC(=O)[C@H]([C@H](O)[C@@H](O)c5ccc(O)cc5)NC(=O)[C@@H]5C[C@@H](O)CN5C(=O)C(C(C)O)NC4=O)cc3)cc2)cc1 (stereo partly drawn) [CD101] ({pTerphenylCO(4''-OnC5H11)}-[Orn(4R-OH,5R-OCH2CH2NMe3+)][ξT][Hyp][hTyr(3S-OH,4S-OH)]T[X1]; lactam 1-C)
**Result** 49.7 h
